The reported measurements were obtained from patent US20180094062A1.

- tested_system: T1, human recombinant HER4 Extracellular Domain (HER4 ECD) (human, UniProt Q15303 26-651)
- T1 sequence: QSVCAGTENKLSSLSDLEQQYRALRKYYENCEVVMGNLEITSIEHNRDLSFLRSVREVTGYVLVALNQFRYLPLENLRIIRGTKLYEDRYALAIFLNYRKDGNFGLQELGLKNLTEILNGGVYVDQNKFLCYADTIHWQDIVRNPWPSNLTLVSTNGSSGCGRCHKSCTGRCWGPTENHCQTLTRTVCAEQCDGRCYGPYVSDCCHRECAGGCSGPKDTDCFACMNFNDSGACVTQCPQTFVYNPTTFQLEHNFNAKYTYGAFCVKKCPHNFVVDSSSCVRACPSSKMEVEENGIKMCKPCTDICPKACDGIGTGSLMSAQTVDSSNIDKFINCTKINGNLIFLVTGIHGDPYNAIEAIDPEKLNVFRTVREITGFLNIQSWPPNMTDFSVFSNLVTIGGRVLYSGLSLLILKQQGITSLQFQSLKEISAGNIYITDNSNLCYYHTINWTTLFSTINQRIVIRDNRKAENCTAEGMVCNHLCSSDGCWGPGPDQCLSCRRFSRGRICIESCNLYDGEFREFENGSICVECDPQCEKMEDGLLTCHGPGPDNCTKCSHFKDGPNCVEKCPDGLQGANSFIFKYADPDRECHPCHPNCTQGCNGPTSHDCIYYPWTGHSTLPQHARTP
- test_name: ELISA, antigen coated, hybridoma supernatant
endpoint_name: OD 405 nm (OD)
Give the quantity in OD, number only.

binder: anti-HER3 antibody M-17-12 (antibody, V domains shown, mouse hybridoma clone; VH and VL stated identical to those of M-17-02) VH: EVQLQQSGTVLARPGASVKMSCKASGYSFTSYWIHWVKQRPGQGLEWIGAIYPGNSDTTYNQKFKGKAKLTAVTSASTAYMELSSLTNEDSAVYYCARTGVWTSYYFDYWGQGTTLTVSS VL: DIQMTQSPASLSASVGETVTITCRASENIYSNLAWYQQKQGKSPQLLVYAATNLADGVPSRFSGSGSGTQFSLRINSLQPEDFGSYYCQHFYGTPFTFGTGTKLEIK
OD 405 nm / OD: 0.051

Turning now to a further record.
# input binder: anti-HER3 antibody M-17-02 (antibody, V domains shown, mouse hybridoma clone) VH: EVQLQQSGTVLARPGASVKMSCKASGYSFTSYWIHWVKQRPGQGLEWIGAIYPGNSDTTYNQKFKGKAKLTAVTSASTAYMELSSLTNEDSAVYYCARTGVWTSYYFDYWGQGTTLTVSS VL: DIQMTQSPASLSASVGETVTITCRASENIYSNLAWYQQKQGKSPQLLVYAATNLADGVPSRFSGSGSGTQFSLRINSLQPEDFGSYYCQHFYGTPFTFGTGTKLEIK ; wanted: its OD 405 nm
0.025
